Measured values drawn from patent US20220002432A1 for this set.

# TARGET_OR_TEST_SYSTEM: T1, Rhesus-ICAM1 (rhesus, UniProt Q5NKV6 28-480, limits assumed)
# T1 sequence (looked up): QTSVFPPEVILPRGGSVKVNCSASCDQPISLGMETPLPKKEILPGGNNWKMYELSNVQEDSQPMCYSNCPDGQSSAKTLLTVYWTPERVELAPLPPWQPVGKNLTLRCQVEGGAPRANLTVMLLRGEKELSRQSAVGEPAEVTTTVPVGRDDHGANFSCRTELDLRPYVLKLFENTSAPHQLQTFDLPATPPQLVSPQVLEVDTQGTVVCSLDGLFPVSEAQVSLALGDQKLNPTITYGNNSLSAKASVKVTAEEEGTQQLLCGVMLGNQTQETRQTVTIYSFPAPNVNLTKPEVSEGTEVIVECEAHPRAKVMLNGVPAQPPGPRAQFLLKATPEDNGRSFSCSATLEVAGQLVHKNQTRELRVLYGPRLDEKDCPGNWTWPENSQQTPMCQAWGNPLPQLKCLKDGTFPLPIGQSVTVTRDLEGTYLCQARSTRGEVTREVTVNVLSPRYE
# ASSAY_DETAILS: SPR (Biacore 8K), antibody captured, antigen injected
ASSAY_METRIC: kon

Sample records with kon:
[
  {
    "BINDER": "11G7 (antibody, human IgG1, kappa, V domains shown, Rabbit-human chimeric anti-ICAM1: rabbit VH and VL on human IgG1 and kappa constant regions) VH: QSVEESGGRLVTPGTPLTLTCTVSGFSLSDYYMSWVRQAPGKGLEWIGIISDSGSTYYASWAKGRFTISKTSSTTVDLKITSPTTEDTATYFCARDWSYDSSSGYYYYDMDLWGPGTLVTVSA VL: AYDMTQTPASVEVAVGGTVTIKCQASQSINSWLSWFHQKPGQPPKRLIYKASTLASGVSSRFKGSGSGTQFTLTISGVESADAATYYCQQGYSRSDGEHVFGGGTEVVVKR",
    "RESULT": "146000 M⁻¹ s⁻¹"
  },
  {
    "BINDER": "2E3 (antibody, human IgG1, kappa, V domains shown, Rabbit-human chimeric anti-ICAM1: rabbit VH and VL on human IgG1 and kappa constant regions) VH: QSVEESGGGLVKPGGTLTLTCTVSGFSLSSYAMGWVRQAPGKGLEYIGIIGSSGSTYYASWAKGRFTISKTSTTVDLKITSPTTEDTATYFCVRDPYDSFGDGYRLWGPGTLVTVSS VL: AYDMTQTPASVEVAVGGTVTIKCQASENIYRYLLWYQQKLGQRPSLLIYDASKLASGVPSRFKGSGSGTEFTLTISGVQSDDAATYYCQQAYSSSNVDNAFGGGTEVVVKR",
    "RESULT": "330000 M⁻¹ s⁻¹"
  }
]

We next turn to a different binder, shown below.
Reported kon of 4H5 (antibody, human IgG1, kappa, V domains shown, Rabbit-human chimeric anti-ICAM1: rabbit VH and VL on human IgG1 and kappa constant regions) VH: QSVEESGGRLVTPGTPLTLTCTASGFSLSNYYMSWVRQAPGKGLEWIGIISDSGTTYYASWAKGRFTISKTSTTVDLKITSPTTEDTATYFCARDWSYDSSSGYYYYDMDLWGPGTLVTVSA VL: GYDMTQTPASVEVAVGGTVTIKCQASQSINSWLVWFQHKPGQPPKRLIYKASTLASGVSSRFKGSGSGTHFTLTISGVESADAATYYCQQGYSRSDGEHVFGGGTEVVVKR : 138000 M⁻¹ s⁻¹
